- protocol-summary: inhibition of NOD1-driven NF-kB reporter – cell-based, luminescence, uHTS, primary screen (AID 1578);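 also: HEK-293T reporter cells stimulated with the NOD1 agonist gamma-tri-DAP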
- stated-conditions: NOD1-driven NF-kB luciferase reporter cells, at 4 µM
Screen size: about 290,000 compounds; about 3,000 (1%) were called active. Rule as the data show it: active = inhibition mostly above about 36% (no sharp cut-off); inactive = mostly below about 34%. This excerpt belongs to a sample that is enriched for actives.
Hi there, use one of these labels in your reply, thanks! active, inactive

[[record]]
test_smiles = "Cc1ccc(N2C(=O)NC(=O)/C(=C\\C=C\\c3ccco3)C2=O)cc1C"
assigned_label = "inactive"

[[record]]
test_smiles = "Cc1cccnc1-n1c(-c2ccccc2)nc2ccccc2c1=O"
assigned_label = "inactive"

[[record]]
test_smiles = "CN1CCN(Cc2cc(C(C)(C)C)c(O)c(C(C)(C)C)c2)CC1"
assigned_label = "inactive"

[[record]]
test_smiles = "Cc1ccccc1NC(=O)CCl"
assigned_label = "inactive"

[[record]]
test_smiles = "O=C1NC(=O)N(CCc2ccc(F)cc2)C(=O)/C1=C/c1cccs1"
assigned_label = "inactive"


What outcome does the record of this test show for CCOc1ccc(C2(C#N)CC[N+](C)(C)CC2)cc1 ?
inactive

Subsequent entry: CC(C)c1ccc(N2C(=O)NC(=O)/C(=C\C=C\c3ccco3)C2=O)cc1
active

Now this one: O=C1NC(=O)C(=Cc2ccc(Sc3ccccc3)o2)C(=O)N1
inactive

Quick one: Cc1csc(=N)n1Cc1ccccc1
inactive

For Cc1ccc(-n2c(O)c(/C=N/N3CCCCCC3)c(=O)[nH]c2=O)cc1C then?
inactive

Please answer likewise for O=C1NC(=O)N(CCc2ccc(F)cc2)C(=O)/C1=C/C=C/c1ccccc1
active
